Catalogue of Anti-CD28 Fab signal (phage binding ELISA) values
TEST TARGET: T1, Anti-CD28 Fab (SEQ ID NOs: 696, 697)
T1 construct: In the phage ELISA the Fab was biotinylated and captured on neutravidin coated plates
T1 sequence (VH, as listed by the source, chain 1 of 2): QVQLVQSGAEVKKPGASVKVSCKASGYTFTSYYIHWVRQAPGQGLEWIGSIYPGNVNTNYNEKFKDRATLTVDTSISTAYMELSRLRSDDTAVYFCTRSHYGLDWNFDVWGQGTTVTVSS
T1 sequence (VL, as listed by the source, chain 2 of 2): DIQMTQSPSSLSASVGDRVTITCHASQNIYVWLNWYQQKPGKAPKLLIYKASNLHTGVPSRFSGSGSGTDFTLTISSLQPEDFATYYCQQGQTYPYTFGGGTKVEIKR
METHOD SUMMARY: phage ELISA; biotinylated anti-CD28 Fab on neutravidin plate, clonal phage supernatant, anti-M13 HRP detection;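 further: crude supernatants of single phage clones picked after panning were screened for binding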
RESULT TYPE: Anti-CD28 Fab signal (phage binding ELISA)

BINDER	VAL
YCAGHLPMYMQKCL (Tested as clonal phage supernatant; not shown: pIII coat protein of the bacteriophage to which the peptide is fused) [Phage-1103 (Peptide-87 library clone, SEQ ID NO: 1419)]	1.33
YCDGHAPQYMAKCI (Tested as clonal phage supernatant; not shown: pIII coat protein of the bacteriophage to which the peptide is fused) [Phage-1115 (Peptide-87 library clone, SEQ ID NO: 1431)]	1.3
YCDGHLPLYMQKCF (Tested as clonal phage supernatant; not shown: pIII coat protein of the bacteriophage to which the peptide is fused) [Phage-1102 (Peptide-87 library clone, SEQ ID NO: 1418)]	1.33
YCDGHSAEYIAKCL (Tested as clonal phage supernatant; not shown: pIII coat protein of the bacteriophage to which the peptide is fused) [Phage-1112 (Peptide-87 library clone, SEQ ID NO: 1428)]	1.31
YCAGHALEYMGKCL (Tested as clonal phage supernatant; not shown: pIII coat protein of the bacteriophage to which the peptide is fused) [Phage-1107 (Peptide-87 library clone, SEQ ID NO: 1423)]	1.32
YCEGHLPEYMIKCL (Tested as clonal phage supernatant; not shown: pIII coat protein of the bacteriophage to which the peptide is fused) [Phage-1108 (Peptide-87 library clone, SEQ ID NO: 1424)]	1.32
YCEGHSLEYMMKCV (Tested as clonal phage supernatant; not shown: pIII coat protein of the bacteriophage to which the peptide is fused) [Phage-1114 (Peptide-87 library clone, SEQ ID NO: 1430)]	1.3
YCEGHLPMYMQKCL (Tested as clonal phage supernatant; not shown: pIII coat protein of the bacteriophage to which the peptide is fused) [Phage-1110 (Peptide-87 library clone, SEQ ID NO: 1426)]	1.31
YCEGHLPAYMWKCL (Tested as clonal phage supernatant; not shown: pIII coat protein of the bacteriophage to which the peptide is fused) [Phage-1109 (Peptide-87 library clone, SEQ ID NO: 1425)]	1.31
YCDGHIPEYMTKCL (Tested as clonal phage supernatant; not shown: pIII coat protein of the bacteriophage to which the peptide is fused) [Phage-1111 (Peptide-87 library clone, SEQ ID NO: 1427)]	1.31
YCEGHSAVYMSKCL (Tested as clonal phage supernatant; not shown: pIII coat protein of the bacteriophage to which the peptide is fused) [Phage-1113 (Peptide-87 library clone, SEQ ID NO: 1429)]	1.31
YCDGHTAEFIGKCL (Tested as clonal phage supernatant; not shown: pIII coat protein of the bacteriophage to which the peptide is fused) [Phage-1106 (Peptide-87 library clone, SEQ ID NO: 1422)]	1.32
YCSEHQIIFIQKCL (Tested as clonal phage supernatant; not shown: pIII coat protein of the bacteriophage to which the peptide is fused) [Phage-1104 (Peptide-87 library clone, SEQ ID NO: 1420)]	1.32
YCEGHLEIYLAKCL (Tested as clonal phage supernatant; not shown: pIII coat protein of the bacteriophage to which the peptide is fused) [Phage-1105 (Peptide-87 library clone, SEQ ID NO: 1421)]	1.32
